- system under test: Bromodomain-containing protein 4 (Homo sapiens, UniProt O60885)
- test name: Displacement of Bio-JQ1 from recombinant human His6 tagged BRD4 bromodomain 1 by alphascreen assay
observation type: IC50 (nM)

Please review the entries below; each comes with its answer.
q: Bench note: what IC50 did C=CCN1C(=O)[C@@H](C)N(C2CCCC2)c2nc(Nc3ccc(C(=O)N4CCC(O)CC4)cc3OC)ccc21 show?
a: 4500

q: Consider the compound shown here: COc1cc(C(=O)NC2CCN(C)CC2)ccc1Nc1ccc2c(n1)N(C1CCCC1)[C@H](C)C(=O)N2C What is its recorded IC50?
a: 37

q: Need IC50, item COc1cc(C(=O)N2CCC(O)CC2)ccc1Nc1ccc2c(n1)N(C1CCCCC1)[C@H](C)C(=O)N2C
a: 150

q: Give the measured IC50 of COc1cc(C(=O)N2CCC(O)CC2)ccc1Nc1ccc2c(c1)N(C1CCCC1)[C@H](C)C(=O)N2C .
a: 110

[P] CC(C)Oc1cc(C(=O)NC2CCN(C)CC2)ccc1Nc1ccc2c(n1)N(C1CCCC1)[C@H](C)C(=O)N2C
[Q] C=CCCN1C(=O)[C@@H](C)N(C2CCCC2)c2nc(Nc3ccc(C(=O)N4CCC(O)CC4)cc3OC)ccc21
[R] C[C@@H]1C(=O)N(C)c2ccc(Nc3ccc(C(=O)NC4CCN(C)CC4)cc3OC3CCCC3)nc2N1C1CCCC1
[S] COc1cc(C(=O)N2CCC(O)CC2)ccc1Nc1cc2c(cc1F)N(C)C(=O)[C@@H](C)N2C1CCCC1
q: # rank_down: sort by IC50, max first Please respond by ranking the labels in the order requested.
a: Q, S, P, R

---

- system under test: Bromodomain-containing protein 4 (Homo sapiens, UniProt O60885)
- test name: Displacement of Bio-JQ1 from recombinant human His6 tagged BRD4 bromodomain 1 by alphascreen assay
observation type: IC50

// worked examples, IC50 included
q: # query: IC50 of entry C=CCCN1C(=O)[C@@H](C)N(C2CCOCC2)c2nc(Nc3ccc(C(=O)NC4CCN(C)CC4)cc3OC)ccc21
a: > 10 µM

q: What does the data say about its IC50? Entry: CC[C@@H]1C(=O)Nc2cnc(Nc3ccc(C(=O)NC4CCN(C)CC4)cc3OC)nc2N1C1CCCC1
a: > 10 µM

Field: next molecule
q: For the molecule COc1cc(C(=O)N2CCC(O)CC2)ccc1Nc1ccc2c(c1C)N(C)[C@H](C)C(=O)N2C , what IC50 is on record?
a: > 10 µM

The measured values listed here are drawn from ChEMBL document CHEMBL4304835.
